Test system: HT29 colon
Assay: NCI-60 one-dose screen, 48 h (100 = growth as untreated, 0 = no growth, -100 = all killed)
Conditions: 10 µM
About 83,000 compounds went through this panel and 20% of them were active in at least one assay; those are over-represented in the sample as a whole.
Response field label: string, one of True (growth strictly below 80%) or False.

Compound	Class
CCC1NC(=O)c2cc(S(N)(=O)=O)c(Cl)cc2N1 (stereo unspecified)	False
COc1cc2c3c(n(C4CCN(C)CC4)c(=O)c2cc1OC)-c1cc2c(cc1C3=O)OCO2	True
O=C1CC(SC(=S)C2CCCC2=O)C(=O)N1 (stereo unspecified)	False
O=C(COc1cccc(/C=C2\CSc3ccccc3C2=O)c1)c1ccc(Cl)cc1	True
CCn1c(SCCc2ccccc2)nnc1-c1nn(-c2ccc(Cl)cc2Cl)c(-c2ccc(Cl)cc2)c1C	True
Cc1ccc(NC(=O)N2CCCCC2)cc1[N+](=O)[O-]	False
COc1cc(-c2nn(-c3cccc(NC(=O)CN4CCOCC4)c3)cc2-c2cccnc2)ccc1Cl	True
CN(C)c1ccc(/C=N/NC(=O)c2cccc3ccccc23)c(Cl)c1	True
O=C(CC(CC(=O)c1ccccc1)c1ccccc1O)c1ccccc1	False
OCC1OC2C(NC(=S)N2c2ccccc2)C(O)C1O (stereo unspecified)	False
O=C(CN(C1CCCCC1)C1CCCCC1)Nc1ccc(S(=O)(=O)c2ccc(NC(=O)CN(C3CCCCC3)C3CCCCC3)cc2)cc1	True
O=C(CSc1nnc(-c2ccc(Cl)cc2)o1)Nc1ccc(C(=O)/C=C/c2ccc(Cl)cc2)cc1	False
CN1CCc2c(sc3nc4n(-c5ccc(Cl)cc5)c(=O)[nH]n4c(=O)c23)C1	False
CCOC(=O)c1cc(C(=O)c2ccc(Cl)cc2)n2ccc(-c3cc[n+](CC(=O)c4ccc(OC)cc4)cc3)cc12	True
COc1cc(CNC(=O)C2CSC3(C)c4ccccc4C(=O)N23)cc(OC)c1OC (stereo unspecified)	False

* * *

Tested on: RPMI-8226 leukemia
Assay: NCI-60 one-dose screen, 48 h
Conditions: 10 µM
About 83,000 compounds went through this panel and 20% of them were active in at least one assay; those are over-represented in the sample as a whole. Activity calls are given as the source filed them. Rule for the calls: active = growth percent below 10; inactive = the rest.
Possible outcomes: active, inactive

Compound	Class
Cc1ccc(C(SCC(N)C(=O)O)(c2ccc(C)cc2)c2ccc(C)cc2)cc1 (centres undefined)	active
CC(=O)Nc1cc2c(cc1Cl)Cc1cc(Cl)ccc1-2	inactive
O=C1Cc2cc(CCN3CCN(c4nsc5ccccc45)CC3)c(Cl)cc2N1	inactive
O=C1c2ccccc2C(=O)N1CCCCNc1ccccc1	inactive
O=C(CCNC(=O)c1nc(-c2ccccc2)n(-c2ccc(Cl)cc2)n1)NO	inactive
COc1cc(NC(=O)Nc2cnc(Nc3ccc(N4CCOCC4)cc3)nc2Oc2cccc(OC)c2)cc(OC)c1	inactive
CC1CCCC(C(=O)O)C1C(=O)O (centres undefined)	inactive
Oc1cccc(-c2nc3sccn3c2-c2ccncn2)c1	inactive
COc1cc2cc(Oc3ccc(NC(=O)Nc4ccc(Cl)c(C(F)(F)F)c4)cc3)c(C)nc2cc1OC	active
CC(=O)Nc1ccc(S(=O)(=O)c2ccnc3cc(Cl)ccc23)cc1	inactive
COc1ccc(-c2cc(-c3ccc(Cl)cc3)nc(SCCCC(=O)NO)n2)cc1OC	active
CCn1c(SCCc2ccccc2)nnc1-c1nn(-c2ccc(Cl)cc2Cl)c(-c2ccc(Cl)cc2)c1C	inactive
Nc1nc(-c2ccc(Cl)cc2)cc(-c2cc3ccccc3oc2=O)n1	inactive
CC(C)(C)OC(=O)N1CCc2c(sc3ncnc(N/N=C/c4cccc5ccccc45)c23)C1	active
